Reference for the values: the RNAGym collection of RNA variant scans (doi:10.1021/acssynbio.7b00057)

Would you mind telling me the reported aptazyme ON/OFF ratio of each entry?
B1: Pistol ribozyme (parent)
chain: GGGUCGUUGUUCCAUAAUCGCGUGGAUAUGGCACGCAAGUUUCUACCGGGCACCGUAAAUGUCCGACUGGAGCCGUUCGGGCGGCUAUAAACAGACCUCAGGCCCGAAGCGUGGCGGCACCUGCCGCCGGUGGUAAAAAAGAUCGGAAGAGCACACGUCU

- Variants of: B1
- Experiment: aptazyme ON/OFF ratio, guanine; higher = stronger switching; co-transcriptional cleavage with and without guanine
One number for each entry.

Examples from the recorded data:
* U7C U10C U11A C12G C13G | 1.15
* U7G U8A G9U U10G U11A C13G | 1.06
* U7A U8A G9C U10C U11A C12A C13G | 1.03

For each of the variants below, state aptazyme ON/OFF ratio.
1. U7A U8A G9A U11G
2. U7A U8G U10C U11C C13G
3. G9U U10A U11G C13U
4. U7A U8C G9C U10C U11A C13U

1. 1.29
2. 1.13
3. 1.72
4. 1.04
